Data origin, for the record: ChEMBL document CHEMBL4706630

Item-by-item account of pIC50
Biological target: G-protein coupled receptor 84 (Homo sapiens, UniProt Q9NQS5)
Sequence (Q9NQS5 whole entry, the tested form may be a part): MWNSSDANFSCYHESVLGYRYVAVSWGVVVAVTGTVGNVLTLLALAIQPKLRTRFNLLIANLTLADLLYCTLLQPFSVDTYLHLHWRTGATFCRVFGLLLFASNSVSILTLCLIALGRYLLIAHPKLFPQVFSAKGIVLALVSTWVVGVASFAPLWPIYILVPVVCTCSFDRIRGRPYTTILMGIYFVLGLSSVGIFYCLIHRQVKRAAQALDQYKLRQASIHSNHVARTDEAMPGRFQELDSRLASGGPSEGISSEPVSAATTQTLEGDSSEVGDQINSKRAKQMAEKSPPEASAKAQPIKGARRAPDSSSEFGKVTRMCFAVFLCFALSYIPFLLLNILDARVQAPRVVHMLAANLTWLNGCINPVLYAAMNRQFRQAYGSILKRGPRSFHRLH
Assay: Antagonist activity at recombinant human N-terminal epitope tagged/eYFP-fused FLAG-tagged GPR84 expressed in Flp-In TREx 293 cells assessed as inhibition of DIM-induced [35S]GTPgammaS binding pre-incubated for 15 mins followed by [35S]GTPgammaS addition and measured after 45 mins by liquid scintillation spectrometry
Type: functional, cell-based, Flp-In-T-REx-293
The meaning of pIC50 here: minus log10 of the concentration in molar units.

Answered examples (2):
> print(dat)
                                   compound  result.number
1  O=c1nc(OC[C@@H]2COCCO2)cc2n1CCc1cc(COCC3CCOCC3)ccc1-2           7.26
2  O=c1nc(OC[C@H]2COCCO2)cc2n1CCc1cc(OCc3noc(C4CC4)n3)ccc1-2           7.07

Kindly review the next compound as well.
Consider the compound O=c1nc(OCC2COCCO2)cc2n1CCc1cc(C#CCNc3ccccc3)ccc1-2 (stereo not drawn) and give its measured pIC50.
7.68

###

Biological target: G-protein coupled receptor 84 (Homo sapiens, UniProt Q9NQS5)
Assay: Antagonist activity at human GPR84 expressed in CHO-K1 cells assessed as reduction in 6-OAU-induced inhibition of forskolin stimulated cAMP production preincubated for 15 mins followed by forskolin and 6-OAU stimulation and measured after 30 mins by luminescence method
Format: functional, cell-based
readout.kind: pIC50
// pIC50 is dimensionless: -log10 of concentration (M)

Value lookup for pIC50; key = O=c1nc(OCC2COCCO2)cc2n1CCc1cc(OCc3ccccn3)ccc1-2 (stereo unspecified)
6.59

###

Biological target: G-protein coupled receptor 84 (Homo sapiens, UniProt Q9NQS5)
Assay: Agonist activity at human GPR84 expressed in CHO cell membranes assessed as induction of [35S]GTPgammaS incorporation incubated for 1 hr by liquid scintillation counting method
Assay type: functional, Cell membrane
readout.kind: EC50 (µM)
Your answer is read as µM, so omit the unit and give the number.

Which EC50 value is on record for CCCCCCCCC(=O)O [NONANOATE] ?
70.2

###

Target: G-protein coupled receptor 84 (Homo sapiens)
Assay: Antagonist activity at GPR84 in LPS-treated human THP-1 cell membrane assessed as reduction in PSB-16671-induced stimulation of [35S]GTPgammaS binding preincubated for 15 mins followed by PSB-16671 addition and subsequent addition of [35S]GTPgammaS measured after 60 mins by liquid scintillation spectroscopy
Assay type: functional
readout.kind: pIC50
pIC50 is a log-scale quantity: -log10 of the concentration expressed in molar.

pIC50 of O=c1nc(OCC2COCCO2)cc2n1CCc1cc(C#CCNc3ccccc3)ccc1-2 (stereo unspecified) on G-protein coupled receptor 84 (Homo sapiens)?
8.32

###

Target: G-protein coupled receptor 84 (Homo sapiens)
Assay: Agonist activity at human GPR84 expressed in CHO cells assessed as reduction in forskolin-stimulated cAMP production preincubated for 20 mins followed by forskolin stimulation and measured after 20 mins by cAMP assay
Type: functional, cell-based
readout.kind: EC50
// return the numeric value with its unit appended

Form: Entry = CCCCCCCCC(=O)O [NONANOATE] | System = G-protein coupled receptor 84 (Homo sapiens) | EC50 = ____
52.3 µM

###

Target: G-protein coupled receptor 84 (Mus musculus)
Sequence (Q8CIM5 whole entry): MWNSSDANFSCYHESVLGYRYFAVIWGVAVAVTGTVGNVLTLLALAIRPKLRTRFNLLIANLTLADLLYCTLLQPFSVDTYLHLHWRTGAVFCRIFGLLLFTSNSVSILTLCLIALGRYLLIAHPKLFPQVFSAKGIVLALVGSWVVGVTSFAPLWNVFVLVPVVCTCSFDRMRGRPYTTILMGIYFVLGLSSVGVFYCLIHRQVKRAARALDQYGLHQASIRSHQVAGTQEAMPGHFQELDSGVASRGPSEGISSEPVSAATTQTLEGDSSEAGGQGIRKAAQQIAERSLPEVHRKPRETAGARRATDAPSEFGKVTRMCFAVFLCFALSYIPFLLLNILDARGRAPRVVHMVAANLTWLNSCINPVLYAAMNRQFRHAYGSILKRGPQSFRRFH
Test: Antagonist activity at mouse Galphai2-coupled GPR84 expressed in human Flp-In-T-REx-293 cell membrane assessed as reduction in PSB-16671-induced stimulation of [35S]GTPgammaS binding preincubated for 15 mins followed by PSB-16671 addition and subsequent addition of [35S]GTPgammaS measured after 60 mins by liquid scintillation spectroscopy
Assay type: functional, cell membranes
readout.kind: IC50 (nM)
The figure you give is taken to be in nM; do not add the unit.

I have this compound here, O=c1nc(OCC2COCCO2)cc2n1CCc1cc(C#CCNc3ccccc3)ccc1-2 (stereo unspecified) , and I need its recorded IC50.
68

###

Molecular target: UniProt:Q9NQS5
Test: Antagonist activity at recombinant human N-terminal epitope tagged/eYFP-fused FLAG-tagged GPR84 expressed in Flp-In TREx 293 cells assessed as inhibition of embelin-induced [35S]GTPgammaS binding pre-incubated for 15 mins followed by [35S]GTPgammaS addition and measured after 45 mins by liquid scintillation spectrometry
Format: functional, cell-based, Flp-In-T-REx-293
readout.kind: IC50 (nM)
Write the value in nM as a bare number.

Here is how some compounds turned out for IC50.
> print(dat)
                                   compound             tgt  result.number
1  O=c1nc(OC[C@@H]2COCCO2)cc2n1CCc1cc(COCC3CCOCC3)ccc1-2  UniProt:Q9NQS5             83
2  O=c1nc(OC[C@H]2COCCO2)cc2n1CCc1cc(OCc3noc(C4CC4)n3)ccc1-2  UniProt:Q9NQS5             14

Please turn your attention to the following entry.
Fill in: IC50 of O=c1nc(OCC2COCCO2)cc2n1CCc1cc(C#CCNc3ccccc3)ccc1-2 (stereo not drawn) is ___
22
